All figures here come from ChEMBL document CHEMBL4828769.

For each record, write down the corresponding inhibition.
Molecular target: Cell division cycle 7-related protein kinase (Homo sapiens)
Sequence (O00311 whole entry, looked up): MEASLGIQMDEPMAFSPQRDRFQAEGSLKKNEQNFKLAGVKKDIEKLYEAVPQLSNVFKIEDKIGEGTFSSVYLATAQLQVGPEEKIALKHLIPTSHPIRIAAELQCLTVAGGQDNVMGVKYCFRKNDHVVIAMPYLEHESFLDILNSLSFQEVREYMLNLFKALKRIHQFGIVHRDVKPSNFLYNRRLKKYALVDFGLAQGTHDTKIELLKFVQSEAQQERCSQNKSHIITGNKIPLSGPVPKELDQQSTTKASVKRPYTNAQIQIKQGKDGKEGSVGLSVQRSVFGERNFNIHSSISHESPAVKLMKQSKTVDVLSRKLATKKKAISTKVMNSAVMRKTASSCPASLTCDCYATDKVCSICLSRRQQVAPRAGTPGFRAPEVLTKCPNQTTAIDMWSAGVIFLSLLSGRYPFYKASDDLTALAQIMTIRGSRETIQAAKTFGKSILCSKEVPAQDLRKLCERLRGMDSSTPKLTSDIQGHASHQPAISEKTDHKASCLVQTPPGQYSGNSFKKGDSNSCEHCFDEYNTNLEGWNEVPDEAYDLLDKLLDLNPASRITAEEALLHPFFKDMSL
Test: Inhibition of CDC7 in human COLO205 cells assessed as reduction in MCM2 phosphorylation at S53 residue at 0.1 uM incubated for 48 hrs by Western blot analysis relative to control
Format: cell-based
Conditions: COLO 205
Use % as the unit, but write only the number.

// compound CCOC(=O)C1=C(NN2CCCC2)O/C(=C\c2c[nH]c3ncccc23)C1=O , assay Cell division cycle 7-related protein kinase (Homo sapiens), inhibition value: 100

Measured on Cell division cycle 7-related protein kinase (Homo sapiens), CCOC(=O)C1=C(NN2CCOCC2)O/C(=C\c2c[nH]c3ncccc23)C1=O has a documented inhibition of 70

Form field, inhibition with Cell division cycle 7-related protein kinase (Homo sapiens), item CCOC(=O)C1=C(NN(C)C2CCCCC2)O/C(=C\c2c[nH]c3ncccc23)C1=O : 35
